target: Histone acetyltransferase RTT109 (Candida albicans (strain SC5314 / ATCC MYA-2876)) (UniProt Q5AAJ8); assay: inhibitors of C. albicans Rtt109/Vps75 HAT, primary screen, biochemical, ThioGlo CoA-SH fluorescence, plate reader (AID 540336); conditions: purified Rtt109/Vps75, ThioGlo CoA-SH fluorescence, 4 h; at 34.9 µM; stronger effect = higher value
Sequence (Q5AAJ8 whole entry, looked up): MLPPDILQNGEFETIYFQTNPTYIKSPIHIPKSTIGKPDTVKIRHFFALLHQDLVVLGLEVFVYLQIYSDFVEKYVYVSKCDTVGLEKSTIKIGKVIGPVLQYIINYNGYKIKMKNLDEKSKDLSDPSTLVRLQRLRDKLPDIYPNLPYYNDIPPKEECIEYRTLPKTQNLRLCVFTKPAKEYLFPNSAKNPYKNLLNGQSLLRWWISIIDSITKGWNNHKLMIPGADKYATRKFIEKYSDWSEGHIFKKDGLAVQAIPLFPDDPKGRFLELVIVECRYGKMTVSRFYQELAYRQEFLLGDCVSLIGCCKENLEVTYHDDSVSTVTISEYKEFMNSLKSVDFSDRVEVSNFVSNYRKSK
In all, about 330,000 compounds went through this assay and about 520 (0.16%) were called active. The list comes from a sample in which actives are over-represented; it also holds close analogues and randomly drawn compounds.
readoutLabel: inhibition (%)
Dear colleague, please return just the value in %, with no unit written.

Provide measured inhibition value, entry: COc1ccc(Cn2cc(CN3CCS(=O)(=O)N(Cc4ccc(-c5cccc(Cl)c5)cc4)C(C)C3=O)nn2)cc1 (configuration not stated)
11.2

Could you please provide reported inhibition for "CSc1ccc(NC(=O)/C=C/C(=O)O)cc1" ? Thanks!
63.6

For the compound "CC(=NNC(=S)N1CCCCCC1)c1ccccn1" , report inhibition.
16.2

Please report the measured inhibition for "O=C(Nc1c(Br)cc2c(c1Br)Cc1ccccc1-2)C(F)(F)F"
-19.3

Could you please provide reported inhibition for "COc1ccc(CCNC(=O)CSc2nc(-c3ccc(OC)c(OC)c3)ccc2C#N)cc1" ? Thanks!
0.0988

Return inhibition for the following compound: "Cc1cccc(N2CCN(c3ccc(NC(=O)/C=C\C(=O)O)cc3)CC2)c1"
3.01

Give the reported value of inhibition for this record: "CCCCN(C(=O)c1cccc(N2C(=O)c3ccccc3C2=O)c1)c1c(N)n(CCCC)c(=O)[nH]c1=O"
6

---

target: Histone acetyltransferase RTT109 (Candida albicans (strain SC5314 / ATCC MYA-2876)); assay: inhibitors of C. albicans Rtt109/Vps75 HAT, primary screen, biochemical, ThioGlo CoA-SH fluorescence, plate reader (AID 540336); conditions: purified Rtt109/Vps75, ThioGlo CoA-SH fluorescence, 4 h; at 34.9 µM; stronger effect = higher value
Out of some 330,000 compounds screened, about 520 (0.16%) were called active. The sample holds actives, similar compounds and a random draw of the others, so the mix is not that of the screen.
readoutLabel: inhibition (%)
Dear colleague, please return just the value in %, with no unit written.

Provide Histone acetyltransferase RTT109 (Candida albicans (strain SC5314 / ATCC MYA-2876)) inhibition reading for CC(C(=O)Nc1ccc(O)c(C(=O)O)c1)N1C(=O)/C(=C/c2cccs2)SC1=S (configuration not stated) .
81.1

Tell me its inhibition on Histone acetyltransferase RTT109 (Candida albicans (strain SC5314 / ATCC MYA-2876)): "COc1ccc(/C=C/C(=O)OCC(=O)N2CCN(S(=O)(=O)c3ccc(C)cc3C)CC2)cc1OC"
-12.4

Send back Histone acetyltransferase RTT109 (Candida albicans (strain SC5314 / ATCC MYA-2876)) inhibition of "COc1cccc(/C=N/Nc2ccc(S(=O)(=O)Nc3ccccc3C(=O)O)cc2[N+](=O)[O-])c1O" only.
31.2

Print Histone acetyltransferase RTT109 (Candida albicans (strain SC5314 / ATCC MYA-2876)) inhibition for CCC(C)C1(C2CCCC2)NC(=O)NC1=O (configuration not stated) .
-0.893

State inhibition (Histone acetyltransferase RTT109 (Candida albicans (strain SC5314 / ATCC MYA-2876))) of "COc1ccccc1NC(=S)NC(=O)C(C)C" .
-8.37

Report value only: inhibition, Histone acetyltransferase RTT109 (Candida albicans (strain SC5314 / ATCC MYA-2876)), "Oc1c(CN2CCCC2)cc(COCc2ccccc2)c2cccnc12"
-7.26

Tell me inhibition of O=C1CC(c2ccccc2)C(c2ccccc2)=NN1 (configuration not stated) when tested on Histone acetyltransferase RTT109 (Candida albicans (strain SC5314 / ATCC MYA-2876)).
6.56

Tell me inhibition of CC1CCN(CC(O)COc2ccc(C(=O)c3ccccc3)cc2)CC1 (configuration not stated) when tested on Histone acetyltransferase RTT109 (Candida albicans (strain SC5314 / ATCC MYA-2876)).
0.839

Under Histone acetyltransferase RTT109 (Candida albicans (strain SC5314 / ATCC MYA-2876)), report inhibition for Cc1cccc(CC2(O)C(=O)Nc3ccccc32)n1 (configuration not stated)
-2.36

State the measured inhibition (Histone acetyltransferase RTT109 (Candida albicans (strain SC5314 / ATCC MYA-2876))) of "O=C(CC(=O)c1cccnc1)c1ccccc1"
5.8

Give the observed inhibition of "O=C1c2ccccc2C(=O)C1C(=O)C1CC1" for Histone acetyltransferase RTT109 (Candida albicans (strain SC5314 / ATCC MYA-2876)).
0.0105

Enter recorded inhibition with Histone acetyltransferase RTT109 (Candida albicans (strain SC5314 / ATCC MYA-2876)) for CCN1CCC(O)(/C=C/c2ccc(C)cc2)C(C(=O)/C=C/c2ccc(C)cc2)C1 (configuration not stated) here.
3.59

Give inhibition; test system Histone acetyltransferase RTT109 (Candida albicans (strain SC5314 / ATCC MYA-2876)); molecule "COc1cccc2sc(N(CCCN(C)C)C(=O)CCS(=O)(=O)c3ccccc3)nc12"
83.9

Please look at "C=CCN1C=C(C(=O)c2ccccc2)C(=O)CC1" and tell me its recorded inhibition on Histone acetyltransferase RTT109 (Candida albicans (strain SC5314 / ATCC MYA-2876)).
9.46

// fetch inhibition; item: COC(=O)C1CC2=C(CC(C)(C)CC2=O)N(c2ccccc2)C1=O (configuration not stated) ; system: Histone acetyltransferase RTT109 (Candida albicans (strain SC5314 / ATCC MYA-2876))
-0.664

Using Histone acetyltransferase RTT109 (Candida albicans (strain SC5314 / ATCC MYA-2876)) as the test system, report measured inhibition of Cc1cc2c(cc1C)NC1(C[C@H]3CCC(=O)N4CC[C@@H](C1)[C@@H]34)C(=NC(C)(C)CC(C)(C)C)N2 (some centres not stated) .
-1.37

Report inhibition on Histone acetyltransferase RTT109 (Candida albicans (strain SC5314 / ATCC MYA-2876)) for this entry: "CCc1c(Nc2ccccc2Cl)nc(N)[nH]c1=O"
4.46

Using Histone acetyltransferase RTT109 (Candida albicans (strain SC5314 / ATCC MYA-2876)) as the test system, report measured inhibition of "CC(C)[C@@H](C(=O)OCC(=O)c1ccc2c(c1)NC(=O)CO2)N1C(=O)c2ccccc2C1=O" .
2.17

Recall the reported inhibition of "O=C1C=C(NS(=O)(=O)c2ccccc2)C(=O)c2ccccc21" on Histone acetyltransferase RTT109 (Candida albicans (strain SC5314 / ATCC MYA-2876)) and write it down.
-1.13

# lookup: Histone acetyltransferase RTT109 (Candida albicans (strain SC5314 / ATCC MYA-2876)) inhibition, key = "COc1cccc2sc(N(CCCN(C)C)C(=O)C(c3ccccc3)c3ccccc3)nc12"
-2

Give inhibition; test system Histone acetyltransferase RTT109 (Candida albicans (strain SC5314 / ATCC MYA-2876)); molecule COc1ccc2c(c1)C(=O)CC(c1ccccc1)O2 (configuration not stated)
-1.45

Report measured inhibition on Histone acetyltransferase RTT109 (Candida albicans (strain SC5314 / ATCC MYA-2876)); entry: Oc1c(C(c2ccccn2)N2CCOCC2)ccc2cccnc12 (configuration not stated)
51.7
